assay: Population pharmacokinetic; format: in vivo, human; settings: human, plasma, oral, 8 mg/day, AUC24,SS, eGFR ≥120 ml/min/1.73 m^2, <20kg (n=2), final PK visit, geometric mean (%CV)
reported.property: AUC

Q. Returns the measured AUC for the input compound. Input: `CCS(=O)(=O)N1CC(CC#N)(n2cc(-c3ncnc4[nH]ccc34)cn2)C1`
A. 2.58 µM·h

* * *

test: Population pharmacokinetic; format: in vivo, human; details: human, plasma, oral, Cmax, eGFR <120 ml/min/1.73 m^2, >40kg (n=3), final PK visit, geometric mean (%CV)
reported.property: Cmax (nM)
Numbers only here, please. The scale is nM.

Q. Returns the measured Cmax for the input molecule. Input: CCS(=O)(=O)N1CC(CC#N)(n2cc(-c3ncnc4[nH]ccc34)cn2)C1 [baricitinib, Baricitinib]
A. 180

* * *

test: Population pharmacokinetic; format: in vivo, human; conditions: human, plasma, oral, estimated half-life, patient O3, >40 kg, eGFR 54–76 mL/min/1.73 m^2
reported.property: half-life

Q. Returns the measured half-life for the input compound. Input: `CCS(=O)(=O)N1CC(CC#N)(n2cc(-c3ncnc4[nH]ccc34)cn2)C1`
A. 17 to 19.2 h

* * *

assay: Population pharmacokinetic; type: in vivo, human; conditions: human, plasma, oral, 6.9 mg/day
reported.property: CL/F (mL/min/kg)
Numbers only here, please. The scale is mL/min/kg.

Q. Returns the measured CL/F for the input compound. Input: `CCS(=O)(=O)N1CC(CC#N)(n2cc(-c3ncnc4[nH]ccc34)cn2)C1`
A. 5.33
